Data origin, for the record: PubChem BioAssay (NCI)

Test system: HCT-116 colon
experiment_notes: NCI tumour cell line growth inhibition, 48 h
Recorded TGI, one value per entry.
Output spec: scalar in µM, unitless text.

- O=C1Nc2ccccc2/C1=C/C(=N/c1nnc(-c2ccc(Cl)cc2)s1)c1ccccc1: 2.38
- CCOc1cc2ncc(C#N)c(Nc3ccc(F)c(Cl)c3)c2cc1NC(=O)CC1CCSS1 (stereo unspecified): 1.27

Prompt line: Value lookup for TGI; key = "c1ccc(CNc2ccc3[nH]c4cnccc4c3c2)cc1"
Response line: 33.2

---

Recorded TGI, one value per entry.
Tested on: NCI/ADR-RES ovarian
experiment_notes: NCI tumour cell line growth inhibition, 48 h

- CN1C(=O)C(O)CC1c1ccc(C(F)(F)F)cc1 (stereo not given): > 100 µM
- Cc1cc(Cl)ccc1Nc1nc(C(F)(F)F)ccc1C(=O)N/N=C/c1cccc(O)c1: 17.6 µM
- O=C1/C(=C\c2cccc(Oc3ccccc3)c2)S(=O)(=O)C(c2ccccc2)N1c1cc(Cl)ccc1Cl (stereo not given): 94.4 µM

Prompt line: Value lookup for TGI; key = "COP(=O)(OC)/C(=C\C1=CN(C(c2ccccc2)(c2ccccc2)c2ccccc2)CN1)NC=O"
Response line: 29.9 µM

Prompt line: Value lookup for TGI; key = CN(C)CCNC(=O)c1cccc2c(NC(CCCN=C(N)N)C(=O)O)c3ccccc3[n+](C)c12 (stereo not given)
Response line: 80.9 µM

---

Test system: NCI-H522 lung
experiment_notes: NCI tumour cell line growth inhibition, 48 h
experimental_endpoint: TGI (µM)
Output spec: scalar in µM, unitless text.

Recorded results for 5 compounds are shown here.
* CCN(CC)c1ccc(/C=C/C2=NN(c3cccc(S(=O)(=O)O)c3)C3(C2)SCC(=O)N3c2nc3ccccc3s2)cc1 (stereo not given) | 67.2
* Cc1ccc(Cl)cc1Nc1nc(C(F)(F)F)ccc1C(N)=O | 60.7
* Oc1c(CNCCCN2CCCC2)cc(Cl)c2cccnc12 | 12.4
* COc1ccccc1NC(=O)c1ccc(NC2=C(Cl)C(=O)N(Cc3ccccc3)C2=O)cc1 | 22.6
* CN1CCN(CCOc2ccc(-c3cnc4c(-c5cccc(F)c5F)cnn4c3)cc2)CC1 | 3.27

Prompt line: Give NCI-H522 lung TGI for "COc1cc(/C=C\c2cc(/C=C\c3ccc(O)c(OC)c3)n(C(=O)COc3ccc(Cl)cc3Cl)n2)ccc1O"
Response line: 0.837

Prompt line: Give NCI-H522 lung TGI for "Cc1cc2nc(CS)[nH]c2cc1C"
Response line: 19.4

Prompt line: Give NCI-H522 lung TGI for "CN(C)C=Nc1ccc2c3c(cccc13)-c1ccccc1-2"
Response line: 18.8

Prompt line: Give NCI-H522 lung TGI for "COc1ccc(/C=C/c2cc(OC)cc(OC)c2)cc1"
Response line: 11.6

Prompt line: Give NCI-H522 lung TGI for "COc1ccc2c(c1)/C(=C\c1c(-c3ccccc3)nc3n1CCS3)C(=O)N2"
Response line: 24.4

Prompt line: Give NCI-H522 lung TGI for "O=C(NC(N1CCN(c2cc3c(cc2F)c(=O)c(C(=O)O)cn3C2CC2)CC1)(C(F)(F)F)C(F)(F)F)c1ccccc1"
Response line: 38.7

Prompt line: Give NCI-H522 lung TGI for CC1=C(C(=O)OCCc2ccc([N+](=O)[O-])cc2)C(c2cccc([N+](=O)[O-])c2)C(C(=O)OC(C)C)=C(C)N1 (stereo not given)
Response line: 7.71
